Every entry's value here was drawn from the supplement of paper PMC3545927.

Target: furin, P09958;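 further: purified furin at 1:10 enzyme:substrate in 50 mM HEPES pH 7.5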
Sequence (P09958 whole entry): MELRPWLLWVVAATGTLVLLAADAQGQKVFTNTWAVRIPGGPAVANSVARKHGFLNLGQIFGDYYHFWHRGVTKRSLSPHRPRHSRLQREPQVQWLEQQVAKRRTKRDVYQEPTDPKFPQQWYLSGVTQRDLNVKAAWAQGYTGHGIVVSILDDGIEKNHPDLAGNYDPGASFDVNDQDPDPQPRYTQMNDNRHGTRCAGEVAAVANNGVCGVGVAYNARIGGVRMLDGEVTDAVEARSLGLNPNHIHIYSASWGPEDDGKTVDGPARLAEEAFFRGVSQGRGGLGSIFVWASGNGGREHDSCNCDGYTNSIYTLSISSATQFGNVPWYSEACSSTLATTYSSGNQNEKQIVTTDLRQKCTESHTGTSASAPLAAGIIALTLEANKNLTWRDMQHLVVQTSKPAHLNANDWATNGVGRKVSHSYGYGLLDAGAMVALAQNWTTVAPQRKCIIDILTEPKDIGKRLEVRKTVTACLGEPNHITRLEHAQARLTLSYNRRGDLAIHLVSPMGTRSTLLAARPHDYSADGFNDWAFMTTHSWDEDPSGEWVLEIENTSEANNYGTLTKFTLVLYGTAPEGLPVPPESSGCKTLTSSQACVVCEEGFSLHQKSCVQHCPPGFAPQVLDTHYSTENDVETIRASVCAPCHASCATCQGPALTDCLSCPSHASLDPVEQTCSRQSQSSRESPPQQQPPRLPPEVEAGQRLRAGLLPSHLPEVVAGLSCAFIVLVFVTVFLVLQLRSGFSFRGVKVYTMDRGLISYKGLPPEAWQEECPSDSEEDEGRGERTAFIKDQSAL
Test: furin cleavage Z-score vs untreated control; higher = more cleavage, active = 3.5 or more, inactive = 1 or less, 8 variable residues between constant flanks
Conditions: 15 min
This is one part of the list. No count for the full screen is at hand.
measured-endpoint: furin cleavage Z-score

INSERT INTO measurements (item_sequence, recorded_result) VALUES
  ('CARGNHVSPTAGNASASA [HC1123]', 1.54),
  ('CARYSRSSAAAGNASASA [FS-1811]', 1.43),
  ('CADVPCHRPSAGNASASA [HC2311]', 1.24);
